test system: Plasmodium falciparum NF54 asexual blood stage; test: % inhibition of asexual blood stage proliferation (pLDH); higher = more inhibition; conditions: 2 µM; 72 h
We begin with a simple list: items and their reported % inhibition of asexual blood stage proliferation.
Answer with a number only, understood to be in %.

COC(=O)Nc1nc2ccccc2[nH]1 ... 6.96
Nc1c(C(=O)NCc2ccco2)c2nc3ccccc3nc2n1CCN1CCCCC1 ... 77.4
C[N+]1(C)CCCC(OC(=O)C(O)(c2ccccc2)c2ccccc2)C1 (stereo not drawn) ... 26
CCN1CCN(Cc2nc3ccc([N+](=O)[O-])cc3c(=O)n2-c2ccccc2F)CC1 ... 33
C[C@@]1(O)[C@H](O)[C@@H](CO)O[C@H]1n1ccc2c(N)ncnc21 ... 14.8
CN1C(=O)C(c2ccccc2)C(=O)N(c2ccccc2)c2cc(C(F)(F)F)ccc21 (stereo not drawn) ... -15.6

**Q:** I would be grateful if you could share the reported % inhibition of asexual blood stage proliferation for COc1cc(C(C)(C)CCCC(C)C)cc(OC)c1OC .
**A:** -22

**Q:** I would be grateful if you could share the reported % inhibition of asexual blood stage proliferation for CC(C)Oc1cccc(NC(=O)c2ccccc2C(F)(F)F)c1 .
**A:** 2.15

###

tested on: HepG2-A16-CD81; experiment: % inhibition of HepG2 viability (CellTiter-Glo); higher = more toxic; conditions: 5 µM;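 further: HepG2-A16-CD81 hepatoma cells plated as in the liver-stage assay but without sporozoites, with DMSO wells as negative and 25 µM puromycin as positive control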
We begin with a simple list: items and their reported % inhibition of HepG2 viability.
Answer with a number only, understood to be in %.

For orientation, consider the following solved cases.
CN1C(=O)C(c2ccccc2)C(=O)N(c2ccccc2)c2cc(C(F)(F)F)ccc21 (centres undefined) ... 3.09
NC1(C(=O)O)CCP(=O)(O)CC1 (centres undefined) ... -2.82
CCCCc1ccc(C(=O)O)nc1 ... -0.607

**Q:** What % inhibition of HepG2 viability appears in the records for this compound with HepG2-A16-CD81? COc1ccccc1CN[C@H]1C2CCN(CC2)[C@H]1C(c1ccccc1)c1ccccc1
**A:** -1

###

tested on: Plasmodium falciparum NF54 stage IV/V gametocytes; assay: % inhibition of gametocyte viability (luciferase reporter); higher = more inhibition; conditions: 1 µM; 48 h
We begin with a simple list: items and their reported % inhibition of gametocyte viability.
Answer with a number only, understood to be in %.

**Q:** I would be grateful if you could share the reported % inhibition of gametocyte viability for Nc1c(C(=O)NCc2ccco2)c2nc3ccccc3nc2n1CCN1CCCCC1 .
**A:** 13.7

**Q:** I would be grateful if you could share the reported % inhibition of gametocyte viability for CN1C(=O)C(c2ccccc2)C(=O)N(c2ccccc2)c2cc(C(F)(F)F)ccc21 (centres undefined) .
**A:** 11.6

###

system: Plasmodium falciparum NF54 stage IV/V gametocytes; test: % inhibition of gametocyte viability (PrestoBlue); higher = more inhibition; conditions: 1 µM; 48 h
We begin with a simple list: items and their reported % inhibition of gametocyte viability.
Answer with a number only, understood to be in %.

For orientation, consider the following solved cases.
COc1cc(C(C)(C)CCCC(C)C)cc(OC)c1OC ... 11.5
Nc1c(C(=O)NCc2ccco2)c2nc3ccccc3nc2n1CCN1CCCCC1 ... 23.5
C[C@H]1CC[C@]2(NC1)O[C@H]1C[C@H]3[C@@H]4CC[C@H]5C[C@@H](O)CC[C@]5(C)[C@H]4CC[C@]3(C)[C@H]1[C@@H]2C ... 13.5
CC(C)Oc1cccc(NC(=O)c2ccccc2C(F)(F)F)c1 ... 2.75

**Q:** I would be grateful if you could share the reported % inhibition of gametocyte viability for CN1C(=O)C(c2ccccc2)C(=O)N(c2ccccc2)c2cc(C(F)(F)F)ccc21 (stereo not drawn) .
**A:** 20.2
